target: human ether-à-go-go-related gene (hERG) potassium channel (human, UniProt Q12809); test: primary screen, population patch clamp on CHO cells stably expressing hERG; higher = less effect of the substance
Sequence (Q12809 whole entry, looked up): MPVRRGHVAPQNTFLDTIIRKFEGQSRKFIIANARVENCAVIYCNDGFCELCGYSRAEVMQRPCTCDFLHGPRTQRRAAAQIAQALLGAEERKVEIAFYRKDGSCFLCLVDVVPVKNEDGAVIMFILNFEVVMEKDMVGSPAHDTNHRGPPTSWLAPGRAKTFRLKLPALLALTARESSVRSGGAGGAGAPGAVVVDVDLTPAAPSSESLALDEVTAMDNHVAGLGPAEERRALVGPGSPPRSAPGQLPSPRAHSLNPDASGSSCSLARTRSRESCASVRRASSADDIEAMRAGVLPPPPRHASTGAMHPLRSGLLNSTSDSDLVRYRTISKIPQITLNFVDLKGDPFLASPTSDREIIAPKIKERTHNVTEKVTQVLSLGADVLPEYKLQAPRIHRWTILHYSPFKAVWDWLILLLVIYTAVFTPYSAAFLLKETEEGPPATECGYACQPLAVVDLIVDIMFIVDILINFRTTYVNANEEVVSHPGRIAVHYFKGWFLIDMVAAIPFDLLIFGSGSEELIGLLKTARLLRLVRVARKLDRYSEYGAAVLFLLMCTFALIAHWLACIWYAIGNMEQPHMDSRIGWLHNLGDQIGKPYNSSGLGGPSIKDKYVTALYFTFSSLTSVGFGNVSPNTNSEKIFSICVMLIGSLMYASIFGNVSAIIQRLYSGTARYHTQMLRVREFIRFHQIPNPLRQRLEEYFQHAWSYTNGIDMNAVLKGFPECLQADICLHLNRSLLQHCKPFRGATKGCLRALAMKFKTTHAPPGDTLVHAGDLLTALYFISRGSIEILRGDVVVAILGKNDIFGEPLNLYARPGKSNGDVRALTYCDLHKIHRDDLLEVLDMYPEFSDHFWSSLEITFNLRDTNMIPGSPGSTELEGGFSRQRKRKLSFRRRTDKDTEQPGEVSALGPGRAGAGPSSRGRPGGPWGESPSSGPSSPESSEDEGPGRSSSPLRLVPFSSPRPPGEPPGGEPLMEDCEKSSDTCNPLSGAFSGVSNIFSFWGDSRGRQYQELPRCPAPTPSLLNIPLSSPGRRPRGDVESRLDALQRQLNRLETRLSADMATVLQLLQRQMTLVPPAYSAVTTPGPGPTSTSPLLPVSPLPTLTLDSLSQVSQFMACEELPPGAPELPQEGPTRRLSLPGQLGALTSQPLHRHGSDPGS
The campaign covered roughly 310,000 compounds. About 2,200 (0.71%) showed an effect of 50% or more. The effect is printed as a negative number. For the sample, strong results were picked, then their nearest neighbours and some compounds at random.
Collected hERG current change (%, negative = inhibition) at 1uM values appear next to each entry.
Please reply with the bare figure in % and do not write the unit itself.

Below are worked cases with known answers.
[[record]]
molecule = "Cc1csc(NC(=O)CSc2nnc(C)n2Cc2ccco2)n1"
uom = "%"
assay_value = 7.95

[[record]]
molecule = "CCCCN1CNC(=S)N(c2cc(C)ccc2C)C1"
uom = "%"
assay_value = 7.21

[[record]]
molecule = "Cc1cccn2c(=O)c3cc(C(=O)NC4CCCCC4)c(=N)n(CCN4CCOCC4)c3nc12"
uom = "%"
assay_value = -51.7

[[record]]
molecule = "CCN(CC)/C(=N\\S(=O)(=O)c1ccccc1C)c1ccccc1"
uom = "%"
assay_value = -5.09

[[record]]
molecule = "CCCCNC(=O)COC(=O)c1ccc(C)c(NC(=O)c2ccco2)c1"
uom = "%"
assay_value = 11.3


Task: Return the recorded hERG current change (%, negative = inhibition) at 1uM value; entry: CCCCC(=O)Nc1cccc(NC(=O)CC)c1
Result: 10.3

Task: Return the recorded hERG current change (%, negative = inhibition) at 1uM value; entry: COc1cc(Cl)cc(/C=C/c2ccc3ccccc3n2)c1OC(C)=O
Result: 16.6

====

target: human ether-à-go-go-related gene (hERG) potassium channel (human); assay: primary screen, population patch clamp on CHO cells stably expressing hERG; higher = less effect of the substance
The whole screen tested about 310,000 compounds, of which about 2,200 (0.71%) showed an effect of 50% or more. Effects have a minus sign here. This excerpt belongs to a sample that is enriched for strong results.
measured-endpoint: hERG current change (%, negative = inhibition) at 1uM (%)
Please reply with the bare figure in % and do not write the unit itself.

Below are worked cases with known answers.
[[record]]
compound = "O=C(N/N=C/c1cc(Br)c(O)c(Br)c1)c1cccnc1"
assay_value = 18.5

[[record]]
compound = "Cc1sc2ncn(Cc3ccccc3F)c(=O)c2c1C"
assay_value = 1.65

[[record]]
compound = "CC1CC(C)CN(C(=S)Nc2ccc(OC(F)F)cc2)C1 (centres unmarked)"
assay_value = -45.1

[[record]]
compound = "CN1CCN(c2nc(Nc3ccc(O)cc3)nc3ccccc23)CC1.Cl"
assay_value = -1.34

[[record]]
compound = "CCCOC(=O)C[N+](C)(C)CCOC1CC2CCC1(C)C2(C)C.[Br-] (centres unmarked)"
assay_value = 11.2


Turning now to a further compound:
Task: Return the recorded hERG current change (%, negative = inhibition) at 1uM value; entry: CNS(=O)(=O)c1cccc(C(=O)OCC(=O)c2cc3ccccc3o2)c1
Result: 21

====

target: human ether-à-go-go-related gene (hERG) potassium channel (human, UniProt Q12809); experiment: primary screen, population patch clamp on CHO cells stably expressing hERG; higher = less effect of the substance
About 2,200 (0.71%) of roughly 310,000 compounds showed an effect of 50% or more. The effect is printed as a negative number. This is one part of a sample in which strong results are shown more often than they occur.
measured-endpoint: hERG current change (%, negative = inhibition) at 1uM (%)
Please reply with the bare figure in % and do not write the unit itself.

Below are worked cases with known answers.
[[record]]
compound = "COc1ccc(NC(=O)N2CC(C)OC(C)C2)cc1OC (stereo not drawn)"
uom = "%"
assay_value = 9.39

[[record]]
compound = "O=C(Nc1nc2ccccc2n1CCN1CCCCC1)c1ccco1"
uom = "%"
assay_value = -37.4

[[record]]
compound = "Cl.O=C1Cc2ccccc2Sc2cc(OCCCN3CCCCC3)ccc21"
uom = "%"
assay_value = -29.1

[[record]]
compound = "O=C1C2CCCCN2C(=O)N1CCCN1CCN(c2ccc(F)cc2)CC1 (stereo not drawn)"
uom = "%"
assay_value = -3.12

[[record]]
compound = "C=CCc1cc(Cl)ccc1OCCCn1ccnc1.O=C(O)C(=O)O"
uom = "%"
assay_value = 7.27

[[record]]
compound = "COc1ccc(C(=O)N2CCN(c3ccccc3Cl)CC2)cc1S(=O)(=O)NC1CC1"
uom = "%"
assay_value = 7.63

[[record]]
compound = "CSCCC(NS(=O)(=O)c1ccccc1F)C(=O)NCCCn1nc(C)cc1C (stereo not drawn)"
uom = "%"
assay_value = -1.95

[[record]]
compound = "Cl.O=C(CN1CCN(C2CCCCC2)CC1)Nc1cccc2ccccc12"
uom = "%"
assay_value = 4.28

[[record]]
compound = "O=C1C2CCCCN2C(=O)N1CCN1CCN(c2ccc([N+](=O)[O-])cc2)CC1 (stereo not drawn)"
uom = "%"
assay_value = -69.7

[[record]]
compound = "C/C(=N/NC(=O)c1ccc(Br)o1)c1ccc(C)o1"
uom = "%"
assay_value = 0.861


Turning now to a further compound:
Task: Print human ether-à-go-go-related gene (hERG) potassium channel (human, UniProt Q12809) hERG current change (%, negative = inhibition) at 1uM for Cc1ccc(C(=O)Nc2nc3ccccc3n2CCN2CCCC2)cc1 .
Result: -19.5

====

target: human ether-à-go-go-related gene (hERG) potassium channel (human, UniProt Q12809); assay: primary screen, population patch clamp on CHO cells stably expressing hERG; higher = less effect of the substance
Hit rate of the full screen: of about 310,000 compounds, about 2,200 (0.71%) showed an effect of 50% or more. Effects have a minus sign here. Shown is part of a subset that was picked to be rich in strong results.
Collected hERG current change (%, negative = inhibition) at 1uM values appear next to each entry.
Please reply with the bare figure in % and do not write the unit itself.

[[record]]
compound = "Fc1ccc(-n2cc(CNCCc3cccnc3)c(-c3ccccc3Cl)n2)cc1"
assay_value = -10

[[record]]
compound = "FC(F)(F)c1ccccc1NC(=S)N1CCN(c2ncccn2)CC1"
assay_value = 11.5

[[record]]
compound = "Cc1ccc2c(c1)NC(=O)C(CC(=O)NCCCN1CCc3ccccc3C1)O2 (stereo not shown)"
assay_value = -58.5


Task: Return the recorded hERG current change (%, negative = inhibition) at 1uM value; entry: Fc1ccc(-n2cc(CNCCc3ccccn3)c(-c3ccccc3Cl)n2)cc1
Result: -78.2

Task: Return the recorded hERG current change (%, negative = inhibition) at 1uM value; entry: CCC(C)N(CCNC(=O)CC1Oc2ccccc2NC1=O)C1CCCCC1 (stereo not shown)
Result: -35.6

Task: Return the recorded hERG current change (%, negative = inhibition) at 1uM value; entry: CCN(C(=O)CSc1nc2cc(Cl)ccc2c(=O)n1Cc1ccco1)C1CCS(=O)(=O)C1 (stereo not shown)
Result: -70.2

Task: Return the recorded hERG current change (%, negative = inhibition) at 1uM value; entry: CCC(C)N(CCNC(=O)CC1Oc2ccc(C)cc2NC1=O)C1CCCCC1 (stereo not shown)
Result: -58.1

Task: Return the recorded hERG current change (%, negative = inhibition) at 1uM value; entry: Cc1ccccc1Cn1c(C)nc2ccccc21
Result: 10.4

Task: Return the recorded hERG current change (%, negative = inhibition) at 1uM value; entry: CCOCCCNc1nc(C(F)(F)F)nc2c1nnn2Cc1ccccc1Cl
Result: 15.9

Task: Return the recorded hERG current change (%, negative = inhibition) at 1uM value; entry: Cc1ccc2c(c1)NC(=O)C(CC(=O)NCCCN1CCCC1)O2 (stereo not shown)
Result: 12.4

====

molecular target: human ether-à-go-go-related gene (hERG) potassium channel (human); assay: primary screen, population patch clamp on CHO cells stably expressing hERG; higher = less effect of the substance
In all, about 310,000 compounds went through this assay and about 2,200 (0.71%) showed an effect of 50% or more. Effects have a minus sign here. This excerpt belongs to a sample that is enriched for strong results.
measured-endpoint: hERG current change (%, negative = inhibition) at 1uM (%)
Please reply with the bare figure in % and do not write the unit itself.

Task: Print human ether-à-go-go-related gene (hERG) potassium channel (human) hERG current change (%, negative = inhibition) at 1uM for CC(C)CN1C2CCCC1CC(NC(=O)c1ccc([N+](=O)[O-])cc1)C2 (stereo not drawn) .
Result: -70.1

Task: Print human ether-à-go-go-related gene (hERG) potassium channel (human) hERG current change (%, negative = inhibition) at 1uM for O=C(NC1CC2CCCC(C1)N2Cc1ccccc1)c1cccc(Cl)c1 (stereo not drawn) .
Result: -12.1

Task: Print human ether-à-go-go-related gene (hERG) potassium channel (human) hERG current change (%, negative = inhibition) at 1uM for Cn1nc(C(F)(F)F)cc1C(=O)O .
Result: 17.3

====

Collected hERG current change (%, negative = inhibition) at 1uM values appear next to each entry.
molecular target: human ether-à-go-go-related gene (hERG) potassium channel (human, UniProt Q12809); assay: primary screen, population patch clamp on CHO cells stably expressing hERG; higher = less effect of the substance
The whole screen tested about 310,000 compounds, of which about 2,200 (0.71%) showed an effect of 50% or more. The effect is printed as a negative number. The entries come from a sample that favours strong results as a whole.
Please reply with the bare figure in % and do not write the unit itself.

Below are worked cases with known answers.
[[record]]
molecule = "O=C1C=C(c2ccc(-c3ccccc3)cc2)C[C@@H](c2ccc(F)cc2)C1"
assay_value = 6.09

[[record]]
molecule = "Cc1c(NC(=O)c2ccc3c4c(cccc24)CC3)c(=O)n(-c2ccccc2)n1C"
assay_value = 15.3

[[record]]
molecule = "CNc1ncc(-c2nnnn2-c2ccccc2)c(-c2ccccc2)n1"
assay_value = 8.07


Turning now to a further molecule:
Task: Return the recorded hERG current change (%, negative = inhibition) at 1uM value; entry: Cl.N=c1ccn(Cc2ccccc2Cl)cc1
Result: 16.8
